Target: T1, monkey CD22 protein (ACROBiosystems, catalog number SI2-R52Ha) (monkey, UniProt F6W485 20-688)
T1 construct: commercial protein; also called monkey CD22-ECD; monkey CD22-ECD-His
T1 sequence: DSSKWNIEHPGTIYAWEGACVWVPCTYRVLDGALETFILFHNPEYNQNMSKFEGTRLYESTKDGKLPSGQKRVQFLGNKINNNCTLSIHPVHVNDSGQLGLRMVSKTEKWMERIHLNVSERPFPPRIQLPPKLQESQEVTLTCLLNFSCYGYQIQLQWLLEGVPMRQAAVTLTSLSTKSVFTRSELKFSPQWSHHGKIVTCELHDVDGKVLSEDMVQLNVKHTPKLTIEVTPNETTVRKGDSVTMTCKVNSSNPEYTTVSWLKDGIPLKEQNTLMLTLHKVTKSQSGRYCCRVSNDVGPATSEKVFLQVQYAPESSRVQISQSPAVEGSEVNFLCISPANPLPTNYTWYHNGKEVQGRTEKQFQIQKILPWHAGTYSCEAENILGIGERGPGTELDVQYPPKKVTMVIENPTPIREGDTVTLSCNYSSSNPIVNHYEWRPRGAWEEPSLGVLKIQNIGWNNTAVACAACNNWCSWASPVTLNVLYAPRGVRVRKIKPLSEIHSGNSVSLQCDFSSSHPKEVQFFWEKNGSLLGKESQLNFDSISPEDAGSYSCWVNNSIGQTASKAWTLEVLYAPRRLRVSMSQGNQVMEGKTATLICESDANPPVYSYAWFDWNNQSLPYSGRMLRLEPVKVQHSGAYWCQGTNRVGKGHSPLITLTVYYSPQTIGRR
Assay: ELISA, coated monkey CD22 protein, antibody 0.00001 nM
observedProperty: OD450 (OD450)
# output: bare number, implied unit OD450

Looking for the measured OD450 of F2.205.9 (antibody, human IgG1, lambda, V domains shown, human-murine chimeric IgG1 lambda; VL name legible) VH: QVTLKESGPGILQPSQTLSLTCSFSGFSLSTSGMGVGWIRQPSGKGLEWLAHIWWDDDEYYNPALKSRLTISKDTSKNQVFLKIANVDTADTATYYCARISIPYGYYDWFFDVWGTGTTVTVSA VL: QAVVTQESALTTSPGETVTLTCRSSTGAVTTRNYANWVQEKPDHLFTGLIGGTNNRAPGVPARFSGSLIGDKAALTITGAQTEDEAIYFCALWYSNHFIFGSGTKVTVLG , can you help?
0.08

Others:
Which OD450 value belongs to F2.55.1 (antibody, human IgG1, lambda, V domains shown, human-murine chimeric IgG1 lambda; VL name legible) VH: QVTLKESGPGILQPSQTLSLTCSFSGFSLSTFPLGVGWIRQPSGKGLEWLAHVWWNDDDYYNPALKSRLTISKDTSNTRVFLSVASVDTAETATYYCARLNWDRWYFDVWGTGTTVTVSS VL: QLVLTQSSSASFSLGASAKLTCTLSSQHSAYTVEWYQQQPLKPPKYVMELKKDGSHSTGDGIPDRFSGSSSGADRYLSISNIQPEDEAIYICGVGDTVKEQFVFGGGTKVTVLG ?
0.06

// lookup OD450 for F1.267.9 (antibody, human IgG1, kappa, V domains shown, human-murine chimeric IgG1 kappa; VL name legible) VH: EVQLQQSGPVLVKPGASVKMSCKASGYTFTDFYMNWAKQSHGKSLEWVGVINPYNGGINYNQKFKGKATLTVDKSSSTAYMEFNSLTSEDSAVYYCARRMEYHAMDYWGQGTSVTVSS VL: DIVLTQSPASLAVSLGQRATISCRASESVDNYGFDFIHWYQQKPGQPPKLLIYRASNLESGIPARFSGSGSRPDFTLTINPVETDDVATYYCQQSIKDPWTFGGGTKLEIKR
0.06

So what's the measured OD450 for this one? HA22-hIgG1 (antibody, V domains shown) VH: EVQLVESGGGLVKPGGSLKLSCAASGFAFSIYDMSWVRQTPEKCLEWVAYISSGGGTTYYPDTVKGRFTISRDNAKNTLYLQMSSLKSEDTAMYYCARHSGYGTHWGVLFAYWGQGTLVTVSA VL: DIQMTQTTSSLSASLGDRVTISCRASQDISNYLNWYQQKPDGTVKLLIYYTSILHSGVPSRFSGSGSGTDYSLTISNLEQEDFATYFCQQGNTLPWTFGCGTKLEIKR
0.08

Find the recorded OD450 belonging to F1.7.6 (antibody, human IgG1, kappa, V domains shown, human-murine chimeric IgG1 kappa; VL name legible) VH: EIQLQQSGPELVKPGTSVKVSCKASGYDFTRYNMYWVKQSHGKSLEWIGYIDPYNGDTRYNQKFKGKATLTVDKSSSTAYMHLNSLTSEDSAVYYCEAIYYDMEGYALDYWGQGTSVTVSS VL: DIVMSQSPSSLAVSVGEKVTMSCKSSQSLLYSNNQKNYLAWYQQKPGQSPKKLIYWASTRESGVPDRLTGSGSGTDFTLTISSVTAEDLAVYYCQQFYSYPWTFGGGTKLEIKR and report it.
0.06

Item F1.216.2 (antibody, human IgG1, kappa, V domains shown, human-murine chimeric IgG1 kappa) VH: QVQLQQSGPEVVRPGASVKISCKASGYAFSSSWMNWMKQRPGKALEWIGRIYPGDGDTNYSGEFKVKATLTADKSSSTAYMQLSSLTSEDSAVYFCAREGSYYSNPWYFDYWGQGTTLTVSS VL: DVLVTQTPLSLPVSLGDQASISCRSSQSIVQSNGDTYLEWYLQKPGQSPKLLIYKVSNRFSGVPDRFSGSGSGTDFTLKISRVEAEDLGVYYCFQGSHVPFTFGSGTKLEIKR has what recorded OD450?
0.09
